# System: Human immunodeficiency virus 1
# test-protocol: Antiviral activity against HIV-1 NLRep-Rluc infected in human MT2 cells assessed as inhibition of viral growth incubated for 96 hrs by renilla luciferase assay
# Assay type: functional, organism-based
# protocol-conditions: Human immunodeficiency virus 1, NLRep-Rluc, MT2, 96 h
readout: pEC50
// pEC50 is dimensionless: -log10 of concentration (M)

Cn1nc(NS(C)(=O)=O)c2c(Cl)ccc(-n3c([C@H](Cc4cc(F)cc(F)c4)NC(=O)Cn4nc(C(F)F)c5c4C(F)(F)[C@@H]4C[C@H]54)nc4cc(N5CCC6(CC5)COC6)ccc4c3=O)c21; 9.89
Cn1nc(NS(C)(=O)=O)c2c(Cl)ccc(-n3c([C@H](Cc4cc(F)cc(F)c4)NC(=O)Cn4nc(C(F)F)c5c4C(F)(F)[C@@H]4C[C@H]54)nc4cccc(F)c4c3=O)c21; 9.89
Cn1nc(NS(C)(=O)=O)c2c(Cl)ccc(-n3c([C@H](Cc4cc(F)cc(F)c4)NC(=O)Cn4nc(C(F)F)c5c4C(F)(F)[C@@H]4C[C@H]54)nc4cc(F)ccc4c3=O)c21; 10.39
COC1CCN(c2ccc3c(=O)n(-c4ccc(Cl)c5c(NS(C)(=O)=O)nn(C)c45)c([C@H](Cc4cc(F)cc(F)c4)NC(=O)Cn4nc(C(F)F)c5c4C(F)(F)[C@@H]4C[C@H]54)nc3c2)CC1; 9.92

# ---- query compound ----
Task item: Enter reported pEC50 observed with Human immunodeficiency virus 1 for Cn1nc(NS(C)(=O)=O)c2c(Cl)ccc(-n3c([C@H](Cc4cc(F)cc(F)c4)NC(=O)Cn4nc(C(F)F)c5c4C(F)(F)[C@@H]4C[C@H]54)nc4cc(N5CCC5)ccc4c3=O)c21
Reply: 9.96

---

# reported selectivity ratio; entries follow
# test-protocol: Selectivity index, ratio of CC50 for cytotoxicity against human MT2 cells to EC50 for antiviral activity against HIV-1 NLRep-Rluc infected in human MT2 cells
# Format: toxicity, cell-based
# protocol-conditions: read-out: Ratio CC50/EC50

COc1ccc2nc([C@H](Cc3cc(F)cc(F)c3)NC(=O)Cn3nc(C(F)F)c4c3C(F)(F)[C@@H]3C[C@H]43)n(-c3ccc(Cl)c4c(NS(C)(=O)=O)nn(C)c34)c(=O)c2c1 (stereo in doubt; 12c); > 1000

Task item: # query: selectivity ratio of entry Cn1nc(NS(C)(=O)=O)c2c(Cl)ccc(-n3c([C@H](Cc4cc(F)cc(F)c4)NC(=O)Cn4nc(C(F)F)c5c4C(F)(F)[C@@H]4C[C@H]54)nc4ccccc4c3=O)c21 (stereo in doubt; 12a)
Reply: > 1000

Task item: Recorded selectivity ratio of COc1cccc2nc([C@H](Cc3cc(F)cc(F)c3)NC(=O)Cn3nc(C(F)F)c4c3C(F)(F)[C@@H]3C[C@H]43)n(-c3ccc(Cl)c4c(NS(C)(=O)=O)nn(C)c34)c(=O)c12 (stereo in doubt; 12d) , please.
Reply: > 1000

Task item: Please look up its selectivity ratio: COc1ccc2c(=O)n(-c3ccc(Cl)c4c(NS(C)(=O)=O)nn(C)c34)c([C@H](Cc3cc(F)cc(F)c3)NC(=O)Cn3nc(C(F)F)c4c3C(F)(F)[C@@H]3C[C@H]43)nc2c1 (stereo in doubt; 12b)
Reply: > 1000
